Please go through the items and note down their stoichiometry N.
Molecular target: the molecule itself
Assay: SEC; free ECD or ECD-His variants; HiLoad Superdex 200 16/600 (Fig. 4A-C) or Superdex 200 Increase 10/300 (Fig. 3, Fig. S1); standard buffer (20 mM Tris-HCl pH 7.4, 100 mM NaCl); 4 °C; 8-mer to monomers
The answer should be written as a number, with no unit following it.

Ask: In one line, give reported stoichiometry N of the entry ECD-His R38A variant (domain or fragment, human, two artificial amino acids at the N-terminus; myelin protein zero (MPZ, P0), human, extracellular domain I1 through V121; I1 is residue 30 of the precursor P25189; linker between the ECD and the His6-tag; trans interface substitution; not shown: His6, C-terminal, kept) MGIVVYTDREVHGAVGSRVTLHCSFWSSEWVSDDISFTWAYQPEGGRDAISIFHYAKGQPYIDEVGTFKERIQWVGDPRWKDGSIVIHNLDYSDNGTFTCDVKNPPDIVGKTSQVTLYVFEKVPTR .
Result: 8

Ask: In one line, give reported stoichiometry N of the entry ECD-His E68V variant (domain or fragment, human, two artificial amino acids at the N-terminus; myelin protein zero (MPZ, P0), human, extracellular domain I1 through V121; I1 is residue 30 of the precursor P25189; linker between the ECD and the His6-tag; CMT2-related substitution at the cis interface; not shown: His6, C-terminal, kept) MGIVVYTDREVHGAVGSRVTLHCSFWSSEWVSDDISFTWRYQPEGGRDAISIFHYAKGQPYIDEVGTFKVRIQWVGDPRWKDGSIVIHNLDYSDNGTFTCDVKNPPDIVGKTSQVTLYVFEKVPTR .
Result: 8

Ask: In one line, give reported stoichiometry N of the entry ECD-His R45A variant (domain or fragment, human, two artificial amino acids at the N-terminus; myelin protein zero (MPZ, P0), human, extracellular domain I1 through V121; I1 is residue 30 of the precursor P25189; linker between the ECD and the His6-tag; trans interface substitution; not shown: His6, C-terminal, kept) MGIVVYTDREVHGAVGSRVTLHCSFWSSEWVSDDISFTWRYQPEGGADAISIFHYAKGQPYIDEVGTFKERIQWVGDPRWKDGSIVIHNLDYSDNGTFTCDVKNPPDIVGKTSQVTLYVFEKVPTR .
Result: 8

Ask: In one line, give reported stoichiometry N of the entry ECD-His H52R variant (domain or fragment, human, two artificial amino acids at the N-terminus; myelin protein zero (MPZ, P0), human, extracellular domain I1 through V121; I1 is residue 30 of the precursor P25189; linker between the ECD and the His6-tag; DSS-related substitution at the trans interface; not shown: His6, C-terminal, kept) MGIVVYTDREVHGAVGSRVTLHCSFWSSEWVSDDISFTWRYQPEGGRDAISIFRYAKGQPYIDEVGTFKERIQWVGDPRWKDGSIVIHNLDYSDNGTFTCDVKNPPDIVGKTSQVTLYVFEKVPTR .
Result: 8

Ask: In one line, give reported stoichiometry N of the entry human MPZ-ECD without a histidine-tag (ECD) (domain or fragment, two artificial amino acids at the N-terminus; myelin protein zero (MPZ, P0), human, extracellular domain I1 through V121; I1 is residue 30 of the precursor P25189; Non-glycosylated; also called hMPZ-ECD) MGIVVYTDREVHGAVGSRVTLHCSFWSSEWVSDDISFTWRYQPEGGRDAISIFHYAKGQPYIDEVGTFKERIQWVGDPRWKDGSIVIHNLDYSDNGTFTCDVKNPPDIVGKTSQVTLYVFEKV .
Result: 8
